# STUDY TARGET: T1, CD66c (Cluster of Differentiation 66c) on cells (UniProt P40199 35-320, limits assumed)
# T1 construct: whole, on cells; also called CEACAM6; CEACAM 6
# T1 sequence (looked up): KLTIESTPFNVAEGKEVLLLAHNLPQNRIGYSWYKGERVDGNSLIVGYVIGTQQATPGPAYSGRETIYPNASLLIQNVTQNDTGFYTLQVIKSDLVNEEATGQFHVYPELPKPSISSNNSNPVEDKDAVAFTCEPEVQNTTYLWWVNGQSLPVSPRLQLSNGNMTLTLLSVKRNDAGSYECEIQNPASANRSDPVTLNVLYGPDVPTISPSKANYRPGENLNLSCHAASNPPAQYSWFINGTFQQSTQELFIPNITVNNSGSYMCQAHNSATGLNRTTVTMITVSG
# EXPERIMENTAL DETAILS: flow cytometry on CD66c-positive A549 cells, FITC anti-human IgG
ATTRIBUTE MEASURED: % gated (%)

* recombinant humanized anti-CD66c antibody Protein ID 2938 (Vk5 + VH7) (antibody, human IgG1, V domains shown, also called hu 2938) VH: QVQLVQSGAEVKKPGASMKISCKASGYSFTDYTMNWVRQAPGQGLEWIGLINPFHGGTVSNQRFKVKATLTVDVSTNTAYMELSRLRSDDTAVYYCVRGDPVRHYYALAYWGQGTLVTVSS VL: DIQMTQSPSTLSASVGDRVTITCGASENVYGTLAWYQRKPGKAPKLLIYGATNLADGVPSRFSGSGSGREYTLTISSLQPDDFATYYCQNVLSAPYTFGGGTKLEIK | 71
* recombinant humanized anti-CD66c antibody Protein ID 3058 (Vk8 + VH11) (antibody, human IgG1, V domains shown, also called hu 3058; #86) VH: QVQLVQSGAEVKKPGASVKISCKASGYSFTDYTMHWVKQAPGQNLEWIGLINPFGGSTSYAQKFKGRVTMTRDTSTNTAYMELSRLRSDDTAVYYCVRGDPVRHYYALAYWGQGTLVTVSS VL: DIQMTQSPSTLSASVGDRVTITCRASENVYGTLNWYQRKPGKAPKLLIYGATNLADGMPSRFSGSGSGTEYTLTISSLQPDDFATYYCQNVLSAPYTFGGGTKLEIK | 72
* recombinant humanized anti-CD66c antibody Protein ID 3019 (Vk7 + VH10) (antibody, human IgG1, V domains shown, also called hu 3019; #51) VH: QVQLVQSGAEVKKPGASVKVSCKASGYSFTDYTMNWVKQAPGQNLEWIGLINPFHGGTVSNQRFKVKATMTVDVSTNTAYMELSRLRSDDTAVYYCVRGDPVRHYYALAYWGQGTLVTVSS VL: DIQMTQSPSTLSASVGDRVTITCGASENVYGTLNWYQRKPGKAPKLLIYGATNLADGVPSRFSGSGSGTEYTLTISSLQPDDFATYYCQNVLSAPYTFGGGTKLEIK | 70
* recombinant humanized anti-CD66c antibody Protein ID 3010 (Vk7 + VH7) (antibody, human IgG1, V domains shown, also called #45) VH: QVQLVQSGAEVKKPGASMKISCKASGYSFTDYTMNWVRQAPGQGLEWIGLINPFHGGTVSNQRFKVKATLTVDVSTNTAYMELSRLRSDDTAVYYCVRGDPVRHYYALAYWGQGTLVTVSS VL: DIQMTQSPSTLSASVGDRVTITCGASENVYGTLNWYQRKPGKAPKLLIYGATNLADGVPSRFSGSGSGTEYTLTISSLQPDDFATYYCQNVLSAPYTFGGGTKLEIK | 70
* recombinant humanized anti-CD66c antibody Protein ID 3046 (Vk8 + VH7) (antibody, human IgG1, V domains shown, also called #74) VH: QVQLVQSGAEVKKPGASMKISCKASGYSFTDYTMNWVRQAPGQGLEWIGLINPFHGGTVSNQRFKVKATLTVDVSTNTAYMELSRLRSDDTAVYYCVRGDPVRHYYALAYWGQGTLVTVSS VL: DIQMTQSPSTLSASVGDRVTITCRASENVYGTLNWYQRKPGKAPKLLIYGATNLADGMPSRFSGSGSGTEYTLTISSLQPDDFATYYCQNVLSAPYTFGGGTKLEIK | 71
